# Percent Activity Improvement Over Parent (%) per entry
METHOD SUMMARY: Dicamba decarboxylation activity of computationally designed protein variants
SETUP CONDITIONS: parent SEQ ID NO:1 or SEQ ID NO:41 listed as 100
Lab book: enter the figure in %, no units written.

The following molecules have reported results that may help.
MOLECULE	MEASUREMENT UNIT	VALUE
111 (protein, Dicamba decarboxylase variant clone DC.4.112) MAQGKVALEEHFAIPETLQDSMGFVPGDYWKELMHRLLDIQDTRLKLMDAHGIETMILSLNAPAVQAIPDRRKAIEIARRANDVLAEECAKRPDRFLAFAALPLQDPDAATEELQRCVNDLGFVGALVNGFSQEGDGQTPLYYDLPQYRPFWGEVEKLDVPFYLHPRNPLPQDSRIYDGHPWLLGPTWAFAQETAVHALRLMASGLFDEHPRLNIILGHMGEGLPYMMWRIDHRMAWIKLPPRYPAKRRFMDYFNENFHITTSGNFRTQTLIDAILEIGADRILFSTDWPFENIDHASDWFNATSIAEADRVKIGRTNARRLFKLDGA	%	237
113 (protein, Dicamba decarboxylase variant clone DC.4.114) MAQGKVALEEHFAIPETLQDSAGFVPGDYLKELFHRLLDIQDTRLKLMDAHGIETMILSLNAPAVQAIPDRRKAIEIARRANDVLAEECAKRPDRFLAFAALPLQDPDAATEELQRCVNDLGFVGALVNGFSQEGDGQTPLYYDLPQYRPFWGEVEKLDVPFYLHPRNPLPQDSRIYDGHPWLLGPTWAFAQETAVHALRLMASGLFDEHPRLNIILGHMGEGLPYMMWRIDHRVAWVKLPPRYPAKRRFMDYFNENFHITTSGNFRTQTLIDAILEIGADRILFSTDWPFENIDHASDWFNATSIAEADRVKIGRTNARRLFKLDGA	%	224

Determine its reported Percent Activity Improvement Over Parent (%): 112 (protein, Dicamba decarboxylase variant clone DC.4.113) MAQGKVALEEHFAIPETLQDSAGFVPGDYWKELVHRLLDIQDTRLKLMDAHGIETMILSLNAPAVQAIPDRRKAIEIARRANDVLAEECAKRPDRFLAFAALPLQDPDAATEELQRCVNDLGFVGALVNGFSQEGDGQTPLYYDLPQYRPFWGEVEKLDVPFYLHPRNPLPQDSRIYDGHPWLLGPTWAFAQETAVHALRLMASGLFDEHPRLNIILGHMGEGLPYMMWRIDHRVAWVKLPPRYPAKRRFMDYFNENFHITTSGNFRTQTLIDAILEIGADRILFSTDWPFENIDHASDWFNATSIAEADRVKIGRTNARRLFKLDGA
219
